# SYSTEM TESTED: mouse proMMP9 (mouse, UniProt P41245 20-730)
# Sequence (P41245 20-730): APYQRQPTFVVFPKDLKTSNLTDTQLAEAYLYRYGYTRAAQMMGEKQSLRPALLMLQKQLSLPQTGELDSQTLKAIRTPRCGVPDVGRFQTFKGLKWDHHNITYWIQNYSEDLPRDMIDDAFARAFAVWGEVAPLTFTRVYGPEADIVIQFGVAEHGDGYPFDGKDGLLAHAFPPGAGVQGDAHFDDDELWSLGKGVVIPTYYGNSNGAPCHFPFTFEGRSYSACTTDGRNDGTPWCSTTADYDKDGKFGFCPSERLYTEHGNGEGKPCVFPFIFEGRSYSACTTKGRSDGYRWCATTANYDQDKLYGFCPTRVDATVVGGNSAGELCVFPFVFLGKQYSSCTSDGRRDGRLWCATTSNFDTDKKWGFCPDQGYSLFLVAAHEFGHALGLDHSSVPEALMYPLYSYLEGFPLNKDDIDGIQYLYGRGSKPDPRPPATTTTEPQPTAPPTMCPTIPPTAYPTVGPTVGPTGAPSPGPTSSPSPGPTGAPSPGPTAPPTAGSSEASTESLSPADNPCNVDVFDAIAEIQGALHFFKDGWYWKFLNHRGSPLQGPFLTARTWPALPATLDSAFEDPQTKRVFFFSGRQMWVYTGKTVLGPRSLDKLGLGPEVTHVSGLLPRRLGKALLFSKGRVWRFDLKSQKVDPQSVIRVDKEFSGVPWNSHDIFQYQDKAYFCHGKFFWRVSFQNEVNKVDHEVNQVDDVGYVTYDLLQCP
# TEST: cell-based or functional assay
RESULT TYPE: Efficacy, MMP3/MMP9 gelatin assay

Give Efficacy, MMP3/MMP9 gelatin assay for F20-VH-GL1/B03-VL-GL1c (antibody, human IgG4, V domains shown) VH: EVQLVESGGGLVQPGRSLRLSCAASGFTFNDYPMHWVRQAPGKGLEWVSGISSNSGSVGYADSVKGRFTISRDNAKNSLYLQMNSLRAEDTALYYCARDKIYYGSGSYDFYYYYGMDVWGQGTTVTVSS VL: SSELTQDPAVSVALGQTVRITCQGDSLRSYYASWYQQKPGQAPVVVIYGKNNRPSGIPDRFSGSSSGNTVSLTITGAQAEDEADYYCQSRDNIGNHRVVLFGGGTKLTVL 25%
